Assayed Target: DNA polymerase eta (Homo sapiens) (UniProt Q9Y253)
Sequence (Q9Y253 whole entry, looked up): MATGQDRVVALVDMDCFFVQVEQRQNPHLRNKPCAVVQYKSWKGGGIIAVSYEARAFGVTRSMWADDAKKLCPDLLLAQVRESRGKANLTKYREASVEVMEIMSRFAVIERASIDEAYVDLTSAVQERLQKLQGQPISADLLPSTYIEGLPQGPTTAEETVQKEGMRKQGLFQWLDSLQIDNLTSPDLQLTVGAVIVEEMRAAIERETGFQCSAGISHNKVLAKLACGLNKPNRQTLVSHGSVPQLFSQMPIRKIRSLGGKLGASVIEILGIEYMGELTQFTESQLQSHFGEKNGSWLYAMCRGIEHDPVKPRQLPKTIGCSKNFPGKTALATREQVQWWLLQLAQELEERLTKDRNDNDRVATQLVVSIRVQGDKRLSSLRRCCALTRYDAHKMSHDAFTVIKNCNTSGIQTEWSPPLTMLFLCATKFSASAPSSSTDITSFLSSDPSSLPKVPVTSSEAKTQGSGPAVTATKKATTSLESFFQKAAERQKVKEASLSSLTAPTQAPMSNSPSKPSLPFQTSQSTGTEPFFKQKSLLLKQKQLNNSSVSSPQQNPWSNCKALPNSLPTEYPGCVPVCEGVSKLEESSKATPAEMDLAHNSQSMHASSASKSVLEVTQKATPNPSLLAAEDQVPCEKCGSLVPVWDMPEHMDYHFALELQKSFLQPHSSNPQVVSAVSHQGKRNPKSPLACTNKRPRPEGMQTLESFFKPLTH
Protocol: qHTS for Inhibitors of Polymerase Eta
Conditions Used: recombinant Pol eta, fluorescent DNA replication assay; series mostly up to 114 µM
Out of some 390,000 compounds screened, about 4,700 (1.2%) were called active. Inconclusive results (about 4%) are left out. The call rests on the fitted dose curve; in most records, active means well fitted inhibition curve with a large enough effect; inconclusive means small, poorly fitted or top-dose-only effect, or another doubt; inactive means no such curve, though single readings can be large or run the other way. What follows is part of a selection rich in actives, with near analogues and random picks from the rest.
Outcomes you can answer with include only these: active, inactive

Name the outcome recorded for Cc1cc(-c2n[nH]c(=S)n2/N=C/C(Br)=C/c2ccccc2)n[nH]1 in the assay.
active

Name the outcome recorded for COC(=O)c1ccc(NC(=O)CSc2n[nH]c(-c3ccccc3)n2)cc1 in the assay.
inactive

Name the outcome recorded for Cc1cc(N2C(=O)c3ccc(C(=O)NCc4ccccc4)cc3C2=O)no1 in the assay.
inactive

Name the outcome recorded for COc1ccc(N2CCN(Cc3nc4c(c(=O)[nH]c(=O)n4C)n3Cc3ccc(Cl)cc3)CC2)cc1 in the assay.
inactive

Name the outcome recorded for O=C(O)C1=C(C(=O)O)C2CCC1C2 in the assay.
active

Name the outcome recorded for COc1ccc(-c2nc3c(c(SCC(=O)Nc4ccc(C(=O)O)cc4)n2)Cc2ccccc2O3)cc1 in the assay.
active

Name the outcome recorded for COc1ccc(OC)c(NC(=O)c2ccc3c(c2)C(=O)N(c2ccc(OC(C)=O)cc2)C3=O)c1 in the assay.
inactive

Name the outcome recorded for CC(=O)N(C1=C(Cl)C(=O)c2ccccc2C1=O)c1ccc(C(=O)O)cc1 in the assay.
active

Name the outcome recorded for O=C(Nc1cc(C(F)(F)F)ccc1Cl)c1cc2nc(-c3ccc4c(c3)OCO4)cc(C(F)(F)F)n2n1 in the assay.
inactive

----------
Assayed Target: DNA polymerase eta (Homo sapiens)
Protocol: qHTS for Inhibitors of Polymerase Eta
Conditions Used: recombinant Pol eta, fluorescent DNA replication assay; series mostly up to 114 µM
Hit rate of the full screen: of about 390,000 compounds, about 4,700 (1.2%) were called active. Not shown: some 4% with an inconclusive outcome. The call rests on the fitted dose curve; in most records, active means well fitted inhibition curve with a large enough effect; inconclusive means small, poorly fitted or top-dose-only effect, or another doubt; inactive means no such curve, though single readings can be large or run the other way. For the sample, actives were picked, then their nearest neighbours and some compounds at random.
Outcomes you can answer with include only these: active, inactive

Name the outcome recorded for COc1ccc(-c2nn3c(=O)cc(CN4CCN(C(=O)c5ccc(OC)c(OC)c5)CC4)nc3s2)cc1 in the assay.
inactive

Name the outcome recorded for CCCCN(C)c1nnc(NC(=O)Nc2ccc(Br)c(C)c2)s1 in the assay.
inactive

Name the outcome recorded for Cn1nc(-c2ccccc2)c(-c2ccccc2)c(C(=O)Nc2ccc(S(N)(=O)=O)cc2)c1=O in the assay.
inactive

Name the outcome recorded for COc1cccc(CNC(=O)CCC(=O)N2CC3CCCN3c3ccccc32)c1 (stereo not given) in the assay.
inactive

Name the outcome recorded for Cc1ccccc1NC(=O)c1c(NC(=O)c2ccccc2F)sc2c1CCC(C)C2 (stereo not given) in the assay.
inactive

Name the outcome recorded for Cc1cc(OC(C)C(=O)Nc2ccc(S(=O)(=O)Nc3onc(C)c3C)cc2)cc(C)c1Cl (stereo not given) in the assay.
inactive

Name the outcome recorded for CCCCOC(=O)CSc1ncnc2sc3c(c12)CCC(C)C3 (stereo not given) in the assay.
inactive

Name the outcome recorded for CC(=O)c1cc(C#N)c(SCC(=O)Nc2nccs2)nc1C in the assay.
inactive

Name the outcome recorded for CC(=O)c1ccc(NS(=O)(=O)c2ccc(-c3cc(C)no3)s2)cc1 in the assay.
inactive

Name the outcome recorded for CC(=O)OC1=C(C(C)=O)N(Cc2ccccc2)S(=O)(=O)c2ccccc21 in the assay.
inactive

Name the outcome recorded for CN(Cc1ccco1)S(=O)(=O)c1nnc(NC(=O)c2ccccc2)s1 in the assay.
inactive

Name the outcome recorded for Cc1ccc(N2CC(NC(=O)Cc3cccs3)CC2=O)cc1 (stereo not given) in the assay.
inactive

Name the outcome recorded for COc1cc(OC)c(NC(=O)N2CC3CCCN3c3ccccc32)cc1Cl (stereo not given) in the assay.
inactive

Name the outcome recorded for Cc1ccc(C)c2c1cc(C)c1nnc(SCC(=O)Nc3cccc(C(=O)O)c3)n12 in the assay.
inactive

Name the outcome recorded for O=C(Nc1ccc(C(=O)OCc2cc(=O)n3nc(C4CC4)sc3n2)cc1)c1ccc(F)cc1 in the assay.
inactive

Name the outcome recorded for Cc1ccc2nc(CNC(=O)c3ccccc3)[nH]c2c1 in the assay.
inactive

Name the outcome recorded for Cc1ccc(Cc2cnc(N)s2)o1 in the assay.
active

Name the outcome recorded for COc1ccc(Cn2c(C(=O)O)c(CNCc3cccc(OC)c3)c3ccc(C)cc32)cc1 in the assay.
inactive

Name the outcome recorded for Cc1cc(C)c2nc(-c3cccnc3)cc(C(=O)Nc3ccc(S(=O)(=O)Nc4onc(C)c4C)cc3)c2c1 in the assay.
active

Name the outcome recorded for Cc1nnc(SC(C)C(=O)Nc2ccc(S(=O)(=O)NC3CCCCC3)cc2)s1 (stereo not given) in the assay.
inactive

Name the outcome recorded for COc1ccc(-c2nn(CC(=O)NC3CCCC3)c3c2cnc2ccc(F)cc23)cc1 in the assay.
inactive

Name the outcome recorded for COc1ccc(C(=O)Nc2cccc(C(=O)OCc3cc(=O)n4c5c(sc4n3)CCCC5)c2)cc1 in the assay.
inactive

Name the outcome recorded for O=c1cc(-c2ccccc2)[nH]c2nc(Cl)ccc12 in the assay.
inactive

Name the outcome recorded for Cc1cc(C)c2oc(C(=O)Nc3ccc(S(=O)(=O)N(C)c4ccccc4)cc3)cc(=O)c2c1 in the assay.
inactive

Name the outcome recorded for CC(=O)c1sc2nc(SCC(=O)N3CCCCC3)[nH]c(=O)c2c1C in the assay.
active

Name the outcome recorded for COc1ccc(CCC(=O)NCc2ccc3c(c2)CCN3C(=O)c2ccc(F)cc2)cc1 in the assay.
inactive

Name the outcome recorded for COc1ccc(NC(=O)Cn2c(=O)n(CCC(C)C)c(=O)c3cccnc32)cc1Cl in the assay.
inactive

Name the outcome recorded for COc1c(O)cc2oc(-c3ccc(O)c(O)c3)cc(=O)c2c1O in the assay.
active

Name the outcome recorded for NC(CSC(c1ccccc1)(c1ccccc1)c1ccc(-c2ccccc2)cc1)C(=O)O (stereo not given) in the assay.
active

Name the outcome recorded for Cc1ccc(Cl)cc1NC(=O)COC(=O)C1CCCCC1 in the assay.
inactive

Name the outcome recorded for NS(=O)(=O)c1cc(C(=O)OCC(=O)NNC(=O)c2ccccc2)ccc1Cl in the assay.
inactive

Name the outcome recorded for CC(C)(C)C1CCc2c(sc(NC(=O)c3ccccc3F)c2C(=O)N2CCCCC2)C1 (stereo not given) in the assay.
inactive

Name the outcome recorded for Cc1ccccc1C(=O)Nc1nnc(S(=O)(=O)N(C)c2ccc(Cl)cc2)s1 in the assay.
inactive

Name the outcome recorded for Cc1ccc(C(=O)N/N=C/c2sc(=O)n(Cc3cccc(C(=O)O)c3)c2Cl)cc1 in the assay.
inactive

Name the outcome recorded for Cc1nnc(SCC(=O)Nc2ccc(S(=O)(=O)Nc3ccc(Cl)nn3)cc2)s1 in the assay.
active

Name the outcome recorded for C=CCn1c(=S)[nH]c2scc(-c3ccco3)c2c1=O in the assay.
active

Name the outcome recorded for Cc1cc(/C=C2/C(=N)N3C(=NC2=O)SN=C3S(C)(=O)=O)c(C)n1-c1ccccc1 in the assay.
active

Name the outcome recorded for O=C(C1=C(O)C(=O)N(CCOCCO)C1c1ccccn1)c1cccs1 (stereo not given) in the assay.
inactive

Name the outcome recorded for Cc1c(Cl)cnc(NC(=O)COC(=O)c2ccc(S(=O)(=O)NCc3ccco3)cc2)c1Cl in the assay.
inactive

Name the outcome recorded for CCOc1ccc(CNC(=O)CCc2c(C)nn(-c3ccc(N4CCCCC4)nn3)c2C)cc1 in the assay.
inactive

----------
Assayed Target: DNA polymerase eta (Homo sapiens) (UniProt Q9Y253)
Protocol: qHTS for Inhibitors of Polymerase Eta
Conditions Used: recombinant Pol eta, fluorescent DNA replication assay; series mostly up to 114 µM
In all, about 390,000 compounds went through this assay and about 4,700 (1.2%) were called active. Inconclusive results (about 4%) are left out. Calls follow the shape of the dose curve; as a rule, active = well fitted inhibition curve with a large enough effect; inconclusive = small, poorly fitted or top-dose-only effect, or another doubt; inactive = no such curve, though single readings can be large or run the other way. For the sample, actives were picked, then their nearest neighbours and some compounds at random.
Outcomes you can answer with include only these: active, inactive

Name the outcome recorded for COc1cc(/C=C2/C(=O)NN(c3cccc(Cl)c3)C2=O)cc(Br)c1O in the assay.
active

Name the outcome recorded for COc1cccc2c1cc1c(=O)n(CC(=O)N3CCN(c4cccc(Cl)c4)CC3)nc(C)n12 in the assay.
inactive

Name the outcome recorded for CCc1ccccc1NC(=O)Cc1ccc(NC(=O)N2CCCCc3ccccc32)cc1 in the assay.
inactive

----------
Assayed Target: DNA polymerase eta (Homo sapiens) (UniProt Q9Y253)
Protocol: qHTS for Inhibitors of Polymerase Eta; further: potency means the concentration at half of the fitted maximal effect
Conditions Used: recombinant Pol eta, fluorescent DNA replication assay; series mostly up to 114 µM
In all, about 390,000 compounds went through this assay and about 4,700 (1.2%) were called active. Another 4% or so got no clear call; they are omitted. Only a selection was taken, and actives are over-represented in it overall.
Reported Metric: Potency

Examples with their reported Potency follow.
# Compound, Result
measured = [
    ("O=C(NC1CCCCC1)C1CCCN(S(=O)(=O)c2ccc(Br)s2)C1 (stereo unspecified)", "inactive"),
    ("CCOCCc1c(O)nc(SCC(=O)NCc2ccco2)[nH]c1=O", "15.8 µM (active)"),
    ("CCOC(=O)c1sc(NC(=O)CSc2nc(O)c(Cc3ccccc3)c(=O)[nH]2)nc1C", "inactive"),
    ("O=C(CS(=O)(=O)c1cccc2nsnc12)N1CCN(c2cccc(Cl)c2)CC1", "inactive"),
    ("CCCCCn1c(CCCNC(=O)c2ccccc2OC)nc2ccccc21", "inactive"),
]

Tell us which Potency value is on record for COc1ccccc1-c1nnc(C2CCN(C(=O)c3ccc(Cl)cc3)CC2)o1
inactive

Tell us which Potency value is on record for Cc1cc(-c2ccccc2)n2nc(-c3ccccc3)cc2n1
inactive

Tell us which Potency value is on record for N#CCC(=O)N/N=C/c1ccc(SCC(=O)Nc2ccccc2)o1
inactive

Tell us which Potency value is on record for CCOc1ccc(-c2cc3nc(C4CCN(C(=O)OC(C)(C)C)CC4)c(C(=O)Nc4cccc(CC)c4)cn3n2)cc1
inactive

Tell us which Potency value is on record for O=C(CCc1ccccc1)NCc1ccc2c(c1)CCN2C(=O)c1ccccc1
inactive

Tell us which Potency value is on record for Cc1cc(NC(=O)CSc2ncc(C(=O)Nc3ccc(Cl)cc3)c(=O)n2C)no1
inactive
